Recorded values, source ChEMBL document CHEMBL5303304.

System: U2OS
Test: Incucyte cell viability with U2OS; note: unitless GR value; below 1 slowed growth and below 0 cell loss
Format: toxicity, cell-based
Conditions: human, 24 h, 10 µM, compound concentration 10 uM, replicate number 1
Form field: Growth Rate (one value per entry).

| COMPOUND | Growth Rate |
| --- | --- |
| O=C(O)Cc1ccc(CCNS(=O)(=O)c2ccc(Cl)cc2)cc1 | 0.96 |
| Cc1c(-c2c(F)cc(C(N)=O)c3[nH]c4c(c23)CC[C@H](C(C)(C)O)C4)cccc1-n1c(=O)c2cccc(F)c2n(C)c1=O | 0.49 |
| Cl.Cl.N#Cc1ccc(O[C@@H]2c3ccccc3C[C@H]2N2CCC[C@@H](N)C2)c(Cl)c1 | 0.72 |
| COc1ccc(-c2cc3c(C)nc(N)nc3n([C@H]3CC[C@H](OCCO)CC3)c2=O)cn1 | 0.6 |
| CN[C@@H]1CC[C@@H](c2ccc(Cl)c(Cl)c2)c2ccccc21.Cl | 0.85 |

Lookup result for `COc1ccc2nc3ccc(OC)cc3c(SCCCN)c2c1.Cl` ; measured Growth Rate: 0.86

Lookup result for `CCN1C(=O)/C(=C(\NC2CCN(C)CC2)c2ccc3c(c2)OCO3)c2cc(C(C)=O)ccc21` ; measured Growth Rate: 0.89

Lookup result for `Cc1csc(-c2nnc(Nc3ccc(Oc4ncccc4-c4ccnc(N)n4)cc3)c3ccccc23)c1` ; measured Growth Rate: 0.33

###

Tested on: U2OS
Assay: Incucyte cell viability with U2OS; note: unitless GR value; below 1 slowed growth and below 0 cell loss
Type: toxicity, cell-based
Conditions: human, 12 h, 10 µM, compound concentration 10 uM, replicate number 1
ATTRIBUTE MEASURED: Growth Rate
Form: value (number only, do not type unit).

Sample records with Growth Rate:
| COMPOUND | REPORTED |
| --- | --- |
| CCC(=O)N[C@H]1CC[C@@H](C(=O)N(C)c2ccc(-c3nc4ccccc4o3)cc2)C1 | 0.89 |
| CC(C)c1cnc(NC(=O)Cc2ccccc2)s1 | 0.87 |
| N[C@H](C(=O)O)[C@@H]1CC(Cl)=NO1 | 0.81 |
| C[C@@]1(Cc2ccc(C#N)cc2)C(=O)N(c2cc(Cl)cc(Cl)c2)c2ncc(C(=O)NC3(c4nc(C5CCC5)no4)CC3)n21 | 0.77 |
| CC(Sc1nc2c(cnn2-c2cccc(Cl)c2)c(=O)[nH]1)C(N)=O (stereo not drawn) | 0.5 |
| Cc1cccc(F)c1C(=O)Nc1cnc(-c2cc3c(cc2Cl)OC(F)(F)O3)cn1 | 0.45 |
| CN1CCCN(C(=O)c2cccc(-c3ccc(/C=C4/C(=O)Nc5ccc(Cl)cc54)o3)c2)CC1 | -0.7 |
| COCCN(C)c1ccc(NC(=O)/C=C(\C)c2ccc3ccccc3c2)c(C(=O)O)c1 | 0.72 |
| CC(C)(C)OC(=O)CN(Cc1ccc(Cl)cc1)Cc1ccc([N+](=O)[O-])s1 | 0.82 |
| O=C(N[C@H](Cc1ccccc1)C(=O)O)c1cccc(OCc2cccnc2)c1.O=CO | 0.66 |

Lookup result for `CC(C)(O)C(=O)N1CCN(c2ccc(C(F)(F)F)c(C3=C(c4c[nH]c5ccccc45)C(=O)NC3=O)c2)CC1` ; measured Growth Rate: 0.93

Lookup result for `c1ccc(C2CCN(c3cnc4c(N5CCOCC5)nccn34)CC2)cc1` ; measured Growth Rate: 0.92

Lookup result for `CNS(=O)(=O)c1ccc(N(C)C)c(Nc2ncnc3cc(OC)c(OC)cc23)c1` ; measured Growth Rate: 0.84

Lookup result for `C#Cc1cnc2[nH]cc(-c3cccc4c3CCN4C(=O)[C@@H]3CCCN3C#N)c2c1` ; measured Growth Rate: -0.58

Lookup result for `Cl.Clc1cc2cc(c1)-c1cnn3ccc(nc13)NCCOCCO2` ; measured Growth Rate: 0.99

###

Tested on: HEK-293T
Test: Incucyte cell viability with HEK293T; note: unitless GR value; below 1 slowed growth and below 0 cell loss
Assay type: toxicity, cell-based
Conditions: human, 24 h, 10 µM, compound concentration 10 uM, replicate number 1
Form field: Growth Rate (one value per entry).

Sample records with Growth Rate:
| COMPOUND | Growth Rate |
| --- | --- |
| Cn1c(SCc2ccc(C(C)(C)C)cc2)nc(N)cc1=O | 0.2 |
| CCN(CC)C/C=C/C(=O)Nc1cc2c(Nc3ccc(F)c(Cl)c3)ncnc2cc1OCC1CC1 | -0.25 |
| Cn1cc(NC(=O)c2ccc3nc4n(c3c2)CCCNC4=O)nc1C(=O)NC1CCCC1 | 0.81 |
| Cc1c(N2CCNCC2)nc2ccc(Br)cc2c1C(=O)NC[C@H](CCC(=O)O)c1ccccc1Cl | 0.88 |
| c1ccc2c(-c3coc4cc(-c5ccc(N6CCNCC6)cc5)cnc34)ccnc2c1 | -0.3 |

Lookup result for `Cc1c[nH]c(-c2cnc(NCCNc3ccc(C#N)cn3)nc2-c2ccc(Cl)cc2Cl)n1` ; measured Growth Rate: 0.71

Lookup result for `C=CC(=O)Nc1cccc(C)c1Nc1ncc2cc(-c3c(Cl)c(OC)cc(OC)c3Cl)ccc2n1` ; measured Growth Rate: -0.21

Lookup result for `Cc1ccc(S(=O)(=O)Nc2ccc(-n3nc(C(F)(F)F)cc3C(F)(F)F)cc2)cc1` ; measured Growth Rate: 0.62

Lookup result for `CCN1CCN(Cc2ccc(C(=O)Nc3ccc(C)c(Oc4ccc5c(c4)CC(=O)N5)c3)cc2C(F)(F)F)CC1.Cl.Cl` ; measured Growth Rate: -0.13

Lookup result for `Cl.NC(=O)c1ccccc1Nc1nc(-c2ccc(N3CCOCC3)cc2)cc2ncccc12` ; measured Growth Rate: -0.11

Lookup result for CN1CCN(c2ccnc(NCCc3ccccc3)n2)CC1 [TP-040n] ; measured Growth Rate: 0.41

Lookup result for `Cc1ccc(-n2nc(C(C)(C)C)cc2NC(=O)Nc2ccc(OCCN3CCOCC3)c3ccccc23)cc1` ; measured Growth Rate: 0.95

Lookup result for `CC(C)(O)[C@H]1CC[C@H](Nc2ccc3ncc(-c4cccc(C(F)(F)F)c4)n3n2)CC1` ; measured Growth Rate: -0.27

Lookup result for `Nc1nccc(-c2ccn3c(N)nccc23)n1` ; measured Growth Rate: 0.97

Lookup result for `Cl.Cl.N#Cc1ccc(O[C@@H]2c3ccccc3C[C@H]2N2CCC[C@@H](N)C2)c(Cl)c1` ; measured Growth Rate: -0.66

Lookup result for `CC1(C)Cc2nc(C3CCCC3)c([C@@H](F)c3ccc(C(F)(F)F)cc3)c(C3CCCCC3)c2[C@@H](O)C1` ; measured Growth Rate: 0.83

Lookup result for `CC[C@H](Nc1ncnc2[nH]cnc12)c1nc2cccc(F)c2c(=O)n1-c1ccccc1` ; measured Growth Rate: 0.38

Lookup result for `CSc1ccc(C[C@@H](C)C(=O)O)cc1Nc1nc(N2CC[C@H](N(C)C)C2)cc(C(F)F)c1C#N.O=C(O)C(F)(F)F` ; measured Growth Rate: 0.48

###

Tested on: Fibroblast
Assay: Incucyte cell viability with human fibroblast; note: unitless GR value; below 1 slowed growth and below 0 cell loss
Format: toxicity, cell-based
Conditions: 18 h, 10 µM, compound concentration 10 uM, replicate number 1
ATTRIBUTE MEASURED: Growth Rate
Form: value (number only, do not type unit).

Sample records with Growth Rate:
| MOLECULE | ASSAY TARGET | ATTRIBUTE MEASURED | REPORTED |
| --- | --- | --- | --- |
| C=CC[C@@H]1/C=C(\C)C[C@H](C)C[C@H](OC)[C@H]2O[C@@](O)(C(=O)C(=O)N3CCCC[C@H]3C(=O)O[C@H](/C(C)=C/[C@@H]3CC[C@@H](O)[C@H](OC)C3)[C@H](C)[C@@H](O)CC1=O)[C@H](C)C[C@@H]2OC.O [TACROLIMUS] | Fibroblast | Growth Rate | 0.96 |
| O=C(O)c1ccnc(N2CC(O)(c3ccc(OCc4c(-c5c(Cl)cccc5Cl)noc4C4CC4)cc3Cl)C2)c1 [CILOFEXOR] | Fibroblast | Growth Rate | 0.87 |

Now, please, on to the next molecule.
Bench note, Fibroblast: entry `Cc1cn(CCN2CCN(c3ccccc3-c3cc(C#N)cc(C(=O)NCCCN4CCCC4)c3)CC2)c2ccccc12` , its Growth Rate = -0.68

###

Form field: Growth Rate (one value per entry).
System: HEK-293T
Experiment: Incucyte cell viability with HEK293T; note: unitless GR value; below 1 slowed growth and below 0 cell loss
Assay type: toxicity, cell-based
Conditions: human, 0 h, 10 µM, compound concentration 10 uM, replicate number 2
Form: value (number only, do not type unit).

| COMPOUND | REPORTED |
| --- | --- |
| COc1cc(OC)cc(-c2cc3cnc(N)nc3nc2NC(=O)NC(C)(C)C)c1 | -0.38 |

Bench note, HEK-293T: entry `COCCNc1cc(NC(=O)N2CCCc3cc(CN4CCOCC4=O)c(C=O)nc32)ncc1C#N` , its Growth Rate = 0.81

Bench note, HEK-293T: entry `COc1cc(Nc2cnc(C#N)c(O[C@H](C)CN(C)C)n2)ncc1-c1cnn(C)c1` , its Growth Rate = -0.51

Bench note, HEK-293T: entry `CNC(=O)c1c(F)cccc1Nc1nc(Nc2cc3c(cc2OC)CCN3C(=O)CN(C)C)nc2[nH]ccc12` , its Growth Rate = 0.35
